- System: HL-60(TB) leukemia
- Method description: NCI tumour cell line growth inhibition, 48 h
TGI by entry:

[
  {
    "Molecule": "Cc1cc(Nc2ncc(Cl)c(Nc3ccccc3S(=O)(=O)C(C)C)n2)c(OC(C)C)cc1C1CCNCC1",
    "Result modifier": "=",
    "TGI, µM": 1.64
  },
  {
    "Molecule": "CC[N+](CC)(CC)Cc1cn(S(=O)(=O)c2ccccc2)c2ccccc12",
    "Result modifier": ">",
    "TGI, µM": 100
  },
  {
    "Molecule": "N=C(N)C(N=Nc1ccccc1)C(=N)N (stereo not given)",
    "Result modifier": "=",
    "TGI, µM": 54.2
  },
  {
    "Molecule": "O=C(O)C(Cc1ccccc1)N1C(=O)c2ccccc2C1=O (stereo not given)",
    "Result modifier": "=",
    "TGI, µM": 10.8
  },
  {
    "Molecule": "N#C/C(=C\\c1ccc(Br)cc1)n1nnc2cc(F)c(F)cc21",
    "Result modifier": "=",
    "TGI, µM": 4.96
  },
  {
    "Molecule": "CC(C(O)c1ccccc1)N(C)/N=N/c1nc2c([nH]1)c(=O)n(C)c(=O)n2C (stereo not given)",
    "Result modifier": ">",
    "TGI, µM": 100
  },
  {
    "Molecule": "O=[N+]([O-])c1ccccc1/C=C/C=C1c2ccccc2-c2ccccc21",
    "Result modifier": ">",
    "TGI, µM": 100
  },
  {
    "Molecule": "CCN(CC)CCCN1C(=O)c2c(c(C)c3c(oc4cc(O)ccc43)c2C)C1=O",
    "Result modifier": "=",
    "TGI, µM": 3.67
  },
  {
    "Molecule": "CNC(=O)c1ccc(Nc2nc(OC3CCCC3)c3c(-c4ccc5nc(C)oc5c4)c[nH]c3n2)c(OC)c1",
    "Result modifier": ">",
    "TGI, µM": 100
  },
  {
    "Molecule": "C1=Cc2nc1c(-c1ccccc1)c1ccc([n-]1)c(-c1ccccc1)c1nc(c(-c3ccccc3)c3ccc([n-]3)c2-c2ccccc2)C=C1.[Zn+2]",
    "Result modifier": ">",
    "TGI, µM": 100
  },
  {
    "Molecule": "O=C(/C=C\\c1cccc2ccccc12)c1ccc(Br)cc1",
    "Result modifier": "=",
    "TGI, µM": 43
  },
  {
    "Molecule": "O=C(/C=C(\\O)C(=O)O)/C=C(\\O)c1ccccc1Cl",
    "Result modifier": ">",
    "TGI, µM": 100
  },
  {
    "Molecule": "O=C(O/N=C1/CCC/C1=C\\c1ccccc1)c1ccccc1",
    "Result modifier": ">",
    "TGI, µM": 100
  },
  {
    "Molecule": "O=C1CS(=O)(=O)C(c2cccc(Oc3ccccc3)c2)N1c1cccc(Cl)c1Cl (stereo not given)",
    "Result modifier": "=",
    "TGI, µM": 82.9
  },
  {
    "Molecule": "COc1ccc(C2c3cc4c(cc3OC(O)(CO)C2C(=O)O)OCO4)c(OC)c1OC (stereo not given) (tested in a mixture with another compound)",
    "Result modifier": ">",
    "TGI, µM": 100
  },
  {
    "Molecule": "O=C1C(Br)=C(c2ccccc2)C(c2ccccc2)=C1c1ccccc1",
    "Result modifier": "=",
    "TGI, µM": 2.31
  },
  {
    "Molecule": "COc1cc(/C=C2\\C[C@H]3[C@@H]4CC=C5C[C@@H](OC(C)=O)CC[C@]5(C)[C@H]4CC[C@]3(C)[C@H]2OC(C)=O)ccc1OCCCn1ccnc1",
    "Result modifier": "=",
    "TGI, µM": 34.1
  },
  {
    "Molecule": "BrC12C3C4C5C(C(C43)C13OCCO3)C52 (stereo not given)",
    "Result modifier": ">",
    "TGI, µM": 100
  },
  {
    "Molecule": "Cc1cccc(NC(=O)CSc2nnc(Cc3ccccc3)o2)c1",
    "Result modifier": ">",
    "TGI, µM": 100
  },
  {
    "Molecule": "O=C1CN2CCC1C/C2=C\\c1ccnc2c(Cl)cccc12 (stereo not given)",
    "Result modifier": ">",
    "TGI, µM": 100
  }
]
